# TARGET_DESC: CutC from Proteus mirabilis (Proteus mirabilis)
# Sequence (B4EYG1 entry or part of it): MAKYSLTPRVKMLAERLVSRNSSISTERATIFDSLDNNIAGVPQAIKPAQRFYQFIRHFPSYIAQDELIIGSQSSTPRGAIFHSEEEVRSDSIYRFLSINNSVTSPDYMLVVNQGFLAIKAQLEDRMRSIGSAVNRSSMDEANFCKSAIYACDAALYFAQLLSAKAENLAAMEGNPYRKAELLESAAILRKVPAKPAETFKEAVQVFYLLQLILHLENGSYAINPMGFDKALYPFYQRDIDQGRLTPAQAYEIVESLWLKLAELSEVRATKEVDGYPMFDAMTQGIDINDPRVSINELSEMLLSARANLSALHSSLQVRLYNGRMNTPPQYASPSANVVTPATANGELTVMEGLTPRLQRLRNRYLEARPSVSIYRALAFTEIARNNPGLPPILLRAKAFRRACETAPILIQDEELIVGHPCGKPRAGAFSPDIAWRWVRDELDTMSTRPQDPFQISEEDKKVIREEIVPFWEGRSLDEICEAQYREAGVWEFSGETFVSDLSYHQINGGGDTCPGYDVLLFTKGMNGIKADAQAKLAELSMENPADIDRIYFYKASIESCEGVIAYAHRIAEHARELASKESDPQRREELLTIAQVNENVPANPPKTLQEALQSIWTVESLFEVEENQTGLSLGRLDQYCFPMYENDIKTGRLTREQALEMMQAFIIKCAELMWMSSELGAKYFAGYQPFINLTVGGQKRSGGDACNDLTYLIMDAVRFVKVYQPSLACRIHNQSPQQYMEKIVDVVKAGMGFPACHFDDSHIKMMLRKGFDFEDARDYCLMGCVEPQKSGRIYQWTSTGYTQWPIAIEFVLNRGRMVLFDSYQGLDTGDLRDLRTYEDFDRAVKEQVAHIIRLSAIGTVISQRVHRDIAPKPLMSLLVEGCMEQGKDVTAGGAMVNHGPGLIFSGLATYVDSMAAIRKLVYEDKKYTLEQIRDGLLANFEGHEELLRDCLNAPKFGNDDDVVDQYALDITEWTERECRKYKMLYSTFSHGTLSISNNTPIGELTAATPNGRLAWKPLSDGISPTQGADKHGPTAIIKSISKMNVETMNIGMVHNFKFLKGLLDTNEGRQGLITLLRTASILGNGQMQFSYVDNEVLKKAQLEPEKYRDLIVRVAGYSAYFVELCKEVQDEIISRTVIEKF
# Sequence (B4EYG0 entry or part of it, further chain): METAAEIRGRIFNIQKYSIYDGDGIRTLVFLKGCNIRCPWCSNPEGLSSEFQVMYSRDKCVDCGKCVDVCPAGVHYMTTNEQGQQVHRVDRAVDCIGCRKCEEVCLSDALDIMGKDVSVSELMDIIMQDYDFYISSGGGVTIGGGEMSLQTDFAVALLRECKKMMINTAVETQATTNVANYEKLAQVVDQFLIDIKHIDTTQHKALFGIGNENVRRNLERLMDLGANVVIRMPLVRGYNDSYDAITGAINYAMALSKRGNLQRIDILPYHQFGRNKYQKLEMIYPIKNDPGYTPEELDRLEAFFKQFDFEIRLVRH
# EXPERIMENTAL_PROTOCOL: Cell-based assay for TMA production from a native producer (P. mirabilis)
# STATED_CONDITIONS: d9-TMA from 1 mM d9-choline, 5 h, 37° C.; value 10 given when no fit or % TMA remaining at 10 μM higher than 15%; read-out: Average IC50 Whole cell P. mirabilis
Structures can show the parent of a compound that is named as a salt.
MEASURED_ATTRIBUTE: IC50 (nM)
The reply should be a number in nM, with the unit left off.

Use these answered entries as a reference point.
{"MOLECULE": "C#CC[N+](C)(CC#C)CCS(=O)(=O)O", "QUANTITATIVE_RESULT": 2280}
{"MOLECULE": "C#CC[N+](C)(CF)CCO (centres unmarked)", "QUANTITATIVE_RESULT": 20}
{"MOLECULE": "C=C(C[N+](C)(C)C)C(=O)O", "QUANTITATIVE_RESULT": 2580}
{"MOLECULE": "C#CC[N+]1(CC#C)CC[C@@H](O)C1", "QUANTITATIVE_RESULT": 2740}
{"MOLECULE": "C#CC[N+](C)(C)Cc1ncco1", "QUANTITATIVE_RESULT": 310}
{"MOLECULE": "C#CC[N+](C)(C)CC(=C)Br", "QUANTITATIVE_RESULT": 771}

Record request: IC50 value, item C[N+]1(CF)CCC[C@@H]1CO (some centres unmarked)
890

Record request: IC50 value, item C#CC[N+](C)(C)CC(=O)O[C@H]1O[C@H](COC(C)=O)[C@@H](OC(C)=O)[C@H](OC(C)=O)[C@H]1OC(C)=O.O=C([O-])C(F)(F)F [Compound 19, trifluoroacetate]
1730

Record request: IC50 value, item COC[N+](C)(C)CCO [Compound 212, trifluoroacetate]
1990

Record request: IC50 value, item C#CC[N+]1(C)CC[C@H](O)C1 (some centres unmarked)
550

Record request: IC50 value, item C[N+]1(CF)CC[C@@H](O)C1 (some centres unmarked)
2070
